- study-system: UniProt Q9NYK1
- Sequence (Q9NYK1 27-1049): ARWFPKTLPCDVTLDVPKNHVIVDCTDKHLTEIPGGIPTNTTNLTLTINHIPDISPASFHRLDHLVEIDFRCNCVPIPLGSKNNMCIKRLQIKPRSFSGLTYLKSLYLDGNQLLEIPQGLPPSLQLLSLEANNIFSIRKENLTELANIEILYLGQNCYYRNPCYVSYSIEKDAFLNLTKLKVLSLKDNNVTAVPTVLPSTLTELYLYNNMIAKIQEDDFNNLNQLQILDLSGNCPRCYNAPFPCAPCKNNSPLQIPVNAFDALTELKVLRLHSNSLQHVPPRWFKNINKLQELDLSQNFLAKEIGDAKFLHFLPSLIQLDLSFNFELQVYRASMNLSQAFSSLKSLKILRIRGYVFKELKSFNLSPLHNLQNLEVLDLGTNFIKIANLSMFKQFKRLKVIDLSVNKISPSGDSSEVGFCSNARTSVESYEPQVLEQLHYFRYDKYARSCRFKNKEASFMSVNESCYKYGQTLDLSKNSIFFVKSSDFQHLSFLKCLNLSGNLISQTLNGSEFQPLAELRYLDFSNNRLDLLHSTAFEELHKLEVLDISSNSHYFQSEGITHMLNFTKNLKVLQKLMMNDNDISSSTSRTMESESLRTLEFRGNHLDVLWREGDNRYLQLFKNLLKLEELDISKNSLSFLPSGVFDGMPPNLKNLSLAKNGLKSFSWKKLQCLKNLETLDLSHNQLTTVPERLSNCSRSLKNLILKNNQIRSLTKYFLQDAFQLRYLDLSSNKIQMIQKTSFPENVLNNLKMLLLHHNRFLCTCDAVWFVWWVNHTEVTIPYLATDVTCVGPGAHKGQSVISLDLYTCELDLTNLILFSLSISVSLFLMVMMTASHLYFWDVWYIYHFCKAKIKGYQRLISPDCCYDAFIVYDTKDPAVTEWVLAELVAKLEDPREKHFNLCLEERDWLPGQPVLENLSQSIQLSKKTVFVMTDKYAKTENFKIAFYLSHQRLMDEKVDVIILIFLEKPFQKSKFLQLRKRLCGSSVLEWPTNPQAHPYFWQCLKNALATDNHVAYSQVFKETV
- protocol: HEK Reporter Assay, HEK293 NFKB reporter cells expressing human TLR7
- reported-conditions: read-out: HEK293 hTLR7 EC50
pEC50: −log10 of the molar value.
property-measured: pEC50

In [3]: df
Out[3]:
                            smiles_notation    study_system  value_measured
0  CCCN(OCC)C(=O)C1=Cc2ccc(-c3cnc(N4CCNCC4)nc3)cc2N=C(N)C1  UniProt Q9NYK1            6.25

A: CCCN(OCC)C(=O)C1=Cc2ccc(-c3ccc(CN)nc3)cc2N=C(N)C1
B: CCCN(OCCNC(=O)NCC)C(=O)C1=Cc2ccc(-c3cnc(CN)nc3)cc2N=C(N)C1
C: CCCN(OCC(C)C)C(=O)C1=Cc2ccc(-c3cnc(CN)nc3)cc2N=C(N)C1
[Q] List by increasing pEC50. Provide your answer as the labels ordered per the instruction.
[A] B, C, A
(B: 5.42, C: 6.12, A: 6.36)
